# MEASUREMENT NOTES: Oral bioavailability in rat at 1.27 mg/kg
# Assay type: ADME, organism-based
# MEASUREMENT CONDITIONS: in vivo
ENDPOINT: bioavailability

[in] Consider the compound `COC(=O)Nc1ccc2c(c1)NC(=O)CC/C=C/C[C@H](N1CC[C@H](c3cccc(Cl)c3)CC1=O)c1nc-2c[nH]1` . State its measured bioavailability.
[out] 15%

* * *

# MEASUREMENT NOTES: Permeability from apical to basolateral side in human Caco2 cells
# Format: ADME, cell-based
# MEASUREMENT CONDITIONS: Caco-2, read-out: permeability
ENDPOINT: Papp A→B

[in] Consider the compound `COC(=O)Nc1ccc2c(c1)NC(=O)CC/C=C/C[C@H](NC(=O)/C=C/c1cc(Cl)ccc1-n1cnnn1)c1nc-2c[nH]1` . State its measured Papp A→B.
[out] < 1.5 ×10⁻⁶ cm/s

[in] Consider the compound `COC(=O)Nc1ccc2c(c1)NC(=O)CC/C=C/C[C@H](NC(=O)/C=C/c1cccc(Cl)c1)c1nc-2c[nH]1` . State its measured Papp A→B.
[out] < 1.5 ×10⁻⁶ cm/s

[in] Consider the compound `COC(=O)Nc1ccc2c(c1)NC(=O)CC/C=C/C[C@H](N1CC[C@H](c3cccc(Cl)c3)CC1=O)c1nc-2c[nH]1` . State its measured Papp A→B.
[out] 4.6 ×10⁻⁶ cm/s

Source listed as ChEMBL document CHEMBL4396948.
